target: Glycogen synthase kinase-3 beta (Homo sapiens, UniProt P49841); experiment: Inhibition of GSK3-beta in human RD cells assessed as glycogen synthase activation measured after 24 hrs under serum starving condition; assay type: cell-based
Sequence (P49841 whole entry): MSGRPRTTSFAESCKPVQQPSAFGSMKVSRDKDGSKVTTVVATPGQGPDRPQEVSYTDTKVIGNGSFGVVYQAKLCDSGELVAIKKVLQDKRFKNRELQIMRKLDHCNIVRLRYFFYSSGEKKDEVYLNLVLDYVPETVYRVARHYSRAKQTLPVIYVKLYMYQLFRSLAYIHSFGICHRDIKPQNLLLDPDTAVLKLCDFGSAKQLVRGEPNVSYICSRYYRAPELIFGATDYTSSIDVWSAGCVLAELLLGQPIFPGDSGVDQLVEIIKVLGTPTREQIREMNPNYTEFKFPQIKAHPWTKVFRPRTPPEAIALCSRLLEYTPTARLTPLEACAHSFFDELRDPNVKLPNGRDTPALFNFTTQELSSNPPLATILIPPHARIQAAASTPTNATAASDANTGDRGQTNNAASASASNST
Under this convention, rule met denotes EC50 strictly below 80 nM and rule not met denotes EC50 at or above 80 nM.

[
  {
    "CHEMICAL STRUCTURE": "CS(=O)(=O)Nc1ccc(CCNC(=O)c2ccc(O)c3nc(-c4ccc(F)cc4F)[nH]c23)cc1",
    "GROUP": "rule met"
  },
  {
    "CHEMICAL STRUCTURE": "O=C(NCCCn1cnc(Cl)c1Cl)c1ccc(O)c2nc(-c3ccco3)[nH]c12",
    "GROUP": "rule met"
  },
  {
    "CHEMICAL STRUCTURE": "O=C(NCCCn1ccnc1)c1ccc(O)c2nc(-c3ccc(F)c(Cl)c3)[nH]c12",
    "GROUP": "rule not met"
  },
  {
    "CHEMICAL STRUCTURE": "O=C(NCCCn1cnc(Cl)c1Cl)c1ccc(O)c2nc(-c3ccc(Cl)cc3Cl)[nH]c12",
    "GROUP": "rule not met"
  }
]

----------
target: Glycogen synthase kinase-3 beta (Homo sapiens, UniProt P49841); test: Inhibition of GSK3-beta assessed as residual activity at 5 uM
Sequence (P49841 whole entry, looked up): as the sequence (P49841 whole entry) above

[
  {
    "CHEMICAL STRUCTURE": "CCCCNC(=O)c1ccc(O)c2[nH]c(Cc3ccccc3)nc12",
    "Activity, %": 63
  },
  {
    "CHEMICAL STRUCTURE": "O=C(O)COc1cccc(CCCNC(=O)c2ccc(O)c3[nH]c(-c4ccc(Cl)cc4)nc23)c1",
    "Activity, %": 0.3
  },
  {
    "CHEMICAL STRUCTURE": "O=C(NCc1cccc(O)c1)c1ccc(O)c2[nH]c(Cc3ccccc3)nc12",
    "Activity, %": 53
  },
  {
    "CHEMICAL STRUCTURE": "O=C(NCCc1ccc([N+](=O)[O-])cc1)c1ccc(O)c2[nH]c(Cc3ccccc3)nc12",
    "Activity, %": 32
  },
  {
    "CHEMICAL STRUCTURE": "CCN1CCN(C(=O)c2ccc(CCNC(=O)c3ccc(O)c4[nH]c(-c5cccs5)nc34)cc2)CC1",
    "Activity, %": 0.9
  },
  {
    "CHEMICAL STRUCTURE": "O=C(NCCCn1cnc(Cl)c1Cl)c1ccc(O)c2[nH]c(-c3ccc(Cl)cc3Cl)nc12",
    "Activity, %": 0
  },
  {
    "CHEMICAL STRUCTURE": "O=C(NCCCn1cnc(Cl)c1Cl)c1ccc(O)c2[nH]c(-c3ccco3)nc12",
    "Activity, %": -1.7
  },
  {
    "CHEMICAL STRUCTURE": "Cc1ccc(S(=O)(=O)Nc2ccc(CCNC(=O)c3ccc(O)c4[nH]c(Cc5ccccc5)nc34)cc2)cc1",
    "Activity, %": 36
  },
  {
    "CHEMICAL STRUCTURE": "CS(=O)(=O)Nc1ccc(CCNC(=O)c2ccc(O)c3[nH]c(-c4ccc(F)cc4F)nc23)cc1",
    "Activity, %": -0.58
  },
  {
    "CHEMICAL STRUCTURE": "CS(=O)(=O)Nc1ccc(CCNC(=O)c2ccc(O)c3[nH]c(Cc4ccccc4)nc23)cc1",
    "Activity, %": 18
  },
  {
    "CHEMICAL STRUCTURE": "O=C(NCCCn1ccnc1)c1ccc(O)c2[nH]c(-c3ccc(F)c(Cl)c3)nc12",
    "Activity, %": 1
  },
  {
    "CHEMICAL STRUCTURE": "NC(=O)c1ccc(O)c2[nH]c(Cc3ccccc3)nc12",
    "Activity, %": 75
  }
]
